target: Induced myeloid leukemia cell differentiation protein Mcl-1 (Homo sapiens); assay: Mcl-1/Noxa binding inhibitor potency, dose response, biochemical, TR-FRET (AID 1417); settings: Mcl-1/Noxa peptide interaction, cell-free TR-FRET (terbium/rhodamine), 2 h; measured here: absolute IC50
Measured IC50 values are reported for all entries that follow.

| compound | IC50 |
| --- | --- |
| O=[N+]([O-])c1cc(Br)c(O)c(/C=N/Nc2nc3ccccc3s2)c1 | < 0.4 µM |
| O=c1[nH]c(C(Cl)Cl)nc2sc3c(c12)CCN(Cc1ccccc1)C3 | > 54 µM |
| Oc1c(/C=N/c2ccccn2)sc2ccccc12 | < 0.4 µM |
| Cc1nn(CC(=O)Nc2ccc(N(C)C)cc2)c(C)c1[N+](=O)[O-] | > 54 µM |
| CC(C)(O)C#Cc1ccc(CN2CCN(C3CCCCC3)C(CCO)C2)cc1 (stereo unspecified) | > 54 µM |

Data request: Quick one: IC50 for CC(C)c1ccc(S(=O)(=O)/N=C2/C=C(Sc3ncn[nH]3)C(=O)c3ccccc32)cc1 ?
Data returned: < 0.4 µM

---

target: Induced myeloid leukemia cell differentiation protein Mcl-1 (Homo sapiens) (UniProt Q07820); assay: Mcl-1/Noxa binding inhibitor potency, dose response, biochemical, TR-FRET (AID 1417); conditions: Mcl-1/Noxa peptide interaction, cell-free TR-FRET (terbium/rhodamine), 2 h; measured here: absolute IC50
Sequence (Q07820 whole entry, looked up): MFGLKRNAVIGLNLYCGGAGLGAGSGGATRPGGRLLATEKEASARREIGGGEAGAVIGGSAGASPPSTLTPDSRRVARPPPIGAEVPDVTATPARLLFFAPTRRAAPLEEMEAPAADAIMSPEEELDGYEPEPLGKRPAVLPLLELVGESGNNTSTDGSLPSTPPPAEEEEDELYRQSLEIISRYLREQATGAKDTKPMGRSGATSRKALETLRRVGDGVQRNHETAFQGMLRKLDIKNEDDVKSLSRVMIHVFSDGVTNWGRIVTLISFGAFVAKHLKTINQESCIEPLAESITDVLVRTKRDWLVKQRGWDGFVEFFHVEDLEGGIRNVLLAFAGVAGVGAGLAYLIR
pIC50: −log10 of the molar value.
reported_endpoint: pIC50

| compound | reported_endpoint | observed_measurement |
| --- | --- | --- |
| CCCCNC(=O)c1ccc2nc(-c3ccco3)c(-c3ccco3)nc2c1 | pIC50 | > 6.40 |
| CC(=O)c1ccc(NC(=O)CSc2ccsc2[N+](=O)[O-])cc1 | pIC50 | < 4.27 |

Data request: Name the recorded pIC50 for Cc1cc(C)c(S(=O)(=O)Nc2cc(SCC(=O)O)c(O)c3ccccc23)cc1C .
Data returned: > 6.40

Data request: What about this compound? OCCNc1nc(Nc2ccccc2)nc(Nc2ccccc2)n1
Data returned: < 4.27

Data request: Follow-up item: CC1=C(C#N)C(=O)NC(=O)/C1=C\c1ccc(-c2ccc(C)cc2[N+](=O)[O-])o1
Data returned: > 6.40

---

biological target: Induced myeloid leukemia cell differentiation protein Mcl-1 (Homo sapiens); test: Mcl-1/Noxa binding inhibitor potency, dose response, biochemical, TR-FRET (AID 1417); details: Mcl-1/Noxa peptide interaction, cell-free TR-FRET (terbium/rhodamine), 2 h; measured here: absolute IC50
reported_endpoint: IC50

Here is how some compounds turned out for IC50.
| compound | target_of_assay | observed_measurement |
| --- | --- | --- |
| c1ccc(Nc2cccc(Nc3ccccc3)c2)cc1 | Induced myeloid leukemia cell differentiation protein Mcl-1 (Homo sapiens) | > 54 µM |
| COc1ccc(NC(=O)c2cc(-c3ccco3)nc3ccccc23)cc1S(=O)(=O)N1CCOCC1 | Induced myeloid leukemia cell differentiation protein Mcl-1 (Homo sapiens) | < 0.4 µM |
| CCC(C)N1C(=O)/C(=C/c2ccc3c(c2)CCN3CCCCl)C(=O)NC1=S (configuration not stated) | Induced myeloid leukemia cell differentiation protein Mcl-1 (Homo sapiens) | 1.92 µM |
| NC(=O)C1CCN(C2=C(Cl)C(=O)c3ccccc3C2=O)CC1 | Induced myeloid leukemia cell differentiation protein Mcl-1 (Homo sapiens) | 48.2 µM |
| CN(C)c1ccc(/C=N/N(Cc2ccccc2)c2ccccc2)cc1 | Induced myeloid leukemia cell differentiation protein Mcl-1 (Homo sapiens) | > 54 µM |
| CC(C)(C)c1ccc(CN2N=Nc3ccccc3S2(=O)=O)cc1 | Induced myeloid leukemia cell differentiation protein Mcl-1 (Homo sapiens) | 18.9 µM |

Next compound, please.
Data request: Could you share which IC50 value was measured for O=C(O)CCC(=O)NCCC1=c2ccccc2=N/C1=C\c1c(O)n(Cc2ccc(F)cc2)c(=S)[nH]c1=O ?
Data returned: < 0.4 µM

---

biological target: Induced myeloid leukemia cell differentiation protein Mcl-1 (Homo sapiens); test: Mcl-1/Noxa binding inhibitor potency, dose response, biochemical, TR-FRET (AID 1417); details: Mcl-1/Noxa peptide interaction, cell-free TR-FRET (terbium/rhodamine), 2 h; measured here: absolute IC50
pIC50: −log10 of the molar value.
reported_endpoint: pIC50

| compound | observed_measurement |
| --- | --- |
| CSc1cnn(Cc2ccccc2)c(=O)c1SCc1ccccc1 | < 4.27 |
| CCN(CC)c1ccc(NC(=O)c2ccccc2OCC(=O)OC)cc1 | < 4.27 |
| COc1ccc(NC(C)C(=O)Nc2ccc(C#N)cc2)cc1Cl (stereo not given) | < 4.27 |
| CCN(c1ccc(NC(=O)COC(=O)CCc2nc3ccccc3n2-c2ccccc2)cc1)C(C)C | > 6.40 |
| O=c1oc2ccccc2c2oc3cc(O)c(O)cc3c12 | > 6.40 |

Data request: // query pIC50 value for entry O=C(Cc1cccs1)N/N=C/C=C\c1ccco1
Data returned: < 4.27

Data request: Same again, this time with CC1CCc2c(sc(Nc3nc4c(F)cccc4s3)c2C(N)=O)C1 (stereo not given)
Data returned: > 6.40

Data request: Check CS(=O)(=O)c1ccc2c(c1)sc1nc(=O)c(/C=C3/C=CC(=O)C(O)=C3)c(N)n12 too.
Data returned: > 6.40

Data request: Repeat for the following compound: NC(=O)c1c(Nc2nc3c(F)cccc3s2)sc2c1CCCC2
Data returned: > 6.40

Data request: Quick one: O=c1c2ccccc2sn1-c1cc(S(=O)(=O)N2CCOCC2)ccc1N1CCOCC1
Data returned: > 6.40

Data request: Next entry: CCN(c1ccc(NC(=O)CCNC(=O)c2ccco2)cc1)C(C)C
Data returned: < 4.27

Data request: Same read-out for COc1ccc2c(=O)c3c(=O)n(-c4ccc(C)cc4)c(-c4ccccc4)nc3oc2c1 ?
Data returned: < 4.27

Data request: Try this compound next: O=C1/C(=C/c2ccco2)SC(=S)N1c1cccnc1
Data returned: < 4.27

Data request: Check O=C1N/C(=N/Nc2ccccc2)S/C1=C\c1ccccc1 too.
Data returned: < 4.27

---

target: Induced myeloid leukemia cell differentiation protein Mcl-1 (Homo sapiens); test: Mcl-1/Noxa binding inhibitor potency, dose response, biochemical, TR-FRET (AID 1417); details: Mcl-1/Noxa peptide interaction, cell-free TR-FRET (terbium/rhodamine), 2 h; measured here: absolute IC50
Listed next: entries and their corresponding pIC50.
// scale note: pIC50 = -log10(conc_M); give the bare number

| molecule | observed_measurement |
| --- | --- |
| CCOC(=O)N1CCN(c2c(NCCCN(CC)Cc3ccccc3)c(=O)c2=O)CC1 | 5.39 |
| CCC1(C(=O)OC)CCc2c(cc(OC)c3ccccc23)C1=O (stereo not drawn) | 4.32 |

Data request: Could you tell me which pIC50 is on file for Cc1[nH]n(-c2ncc(-c3ccc(Cl)cc3)s2)c(=O)c1C(c1ccc(Cl)cc1)C(C#N)C#N (stereo not drawn) ?
Data returned: 5.78

Data request: Lookup COc1ccccc1NC1=C(NC(C)=O)C(=O)c2ccccc2C1=O
Data returned: 5.61

---

target: Induced myeloid leukemia cell differentiation protein Mcl-1 (Homo sapiens) (UniProt Q07820); assay: Mcl-1/Noxa binding inhibitor potency, dose response, biochemical, TR-FRET (AID 1417); conditions: Mcl-1/Noxa peptide interaction, cell-free TR-FRET (terbium/rhodamine), 2 h; measured here: absolute IC50
reported_endpoint: IC50

| compound | reported_endpoint | observed_measurement |
| --- | --- | --- |
| O=C(/C=C/c1cccnc1)c1ccc(O)cc1 | IC50 | > 54 µM |
| CC(=O)N(C1=C(Cl)C(=O)c2ccccc2C1=O)C1CCCCC1 | IC50 | < 0.4 µM |

Data request: Which IC50 value belongs to CC12CN3CC(C)(CN(C1)C3c1ccccc1Cl)C2O (stereo not given) ?
Data returned: > 54 µM

Data request: Also O=C1C2C3C=CC(C2C(=O)N1c1cccc(O)c1)C1C2C(=O)N(c4cccc(O)c4)C(=O)C2C31 (stereo not given) ?
Data returned: > 54 µM

Data request: Now consider Cc1cc(-c2nc3c4c5c(sc4[nH]c(=O)n3n2)CCC5)c(C)o1 and answer again.
Data returned: < 0.4 µM

Data request: COc1cc(OC)c2c(O)c3c(c(-c4c5c(c(O)c6c(OC)cc(OC)cc46)CO[C@@H](C)[C@H]5O)c2c1)[C@H](O)[C@H](C)OC3 ?
Data returned: > 54 µM

Data request: Another compound to look at: CN(C)c1ccc(NS(=O)(=O)c2cccc(Cl)c2)cc1
Data returned: > 54 µM

Data request: Follow-up entry: O=c1ccc2[n+]([O-])c3ccc(O)cc3oc-2c1
Data returned: > 54 µM

Data request: Repeat for the following compound: Cc1ccc(O)c(NC2=C(Cl)C(=O)N(Cc3ccccc3)C2=O)c1
Data returned: > 54 µM

Data request: C=C(C)C(=O)Nc1cccc(C2=NOC3(C2)C[C@@H](C(N)=O)N(C(=O)/C(C)=C/C)C3)c1 (stereo not given in full) , same question.
Data returned: > 54 µM
